// provenance: ChEMBL document CHEMBL1144851

# target_or_test_system: Delta-type opioid receptor (Homo sapiens)
# Sequence (P41143 whole entry): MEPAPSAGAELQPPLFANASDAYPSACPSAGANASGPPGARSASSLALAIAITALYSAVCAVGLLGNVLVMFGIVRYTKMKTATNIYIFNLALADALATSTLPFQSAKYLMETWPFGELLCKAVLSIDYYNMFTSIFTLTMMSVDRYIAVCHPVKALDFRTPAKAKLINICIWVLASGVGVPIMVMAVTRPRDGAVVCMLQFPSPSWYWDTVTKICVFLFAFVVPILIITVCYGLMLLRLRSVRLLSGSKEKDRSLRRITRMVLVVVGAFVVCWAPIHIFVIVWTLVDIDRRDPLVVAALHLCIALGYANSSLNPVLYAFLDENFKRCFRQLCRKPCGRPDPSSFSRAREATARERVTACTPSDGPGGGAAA
# measurement_protocol: Displacement of [3H]diprenorphine from recombinant delta opioid receptor expressed in C6 cells
pKi: −log10 of the molar value.
Binary classification by pKi, with 7 as an inclusive lower bound for condition met; all other cases are condition not met.

Lookup: Given CO[C@H]1CC[C@H]2[C@H]3Cc4cccc5c4[C@@]2(CCN3C)[C@H]1O5 , state whether its pKi is at least 7.
Found: condition not met

Lookup: Please indicate if the recorded pKi for COc1ccc2c3c1O[C@H]1CC=C[C@H]4[C@@H](C2)N(C)CC[C@]314 meets or exceeds 7.
Found: condition not met

Lookup: In plain terms: is recorded pKi at least 7 for CN1CC[C@]23c4c5ccc(O)c4O[C@H]2CC=C[C@H]3[C@H]1C5 ?
Found: condition met

Lookup: Tell me whether pKi is at least 7 here: COc1ccc2c3c1O[C@H]1[C@@H](OC)C=C[C@H]4[C@@H](C2)N(C)CC[C@@]341
Found: condition not met

Lookup: Say whether CN1CC[C@]23c4c5cccc4O[C@H]2[C@@H](O)CC[C@H]3[C@H]1C5 shows pKi of 7 or more.
Found: condition not met

Lookup: Form field: pKi at least 7? Entry: CN1CC[C@]23c4c5cccc4O[C@H]2CCC[C@H]3[C@H]1C5
Found: condition not met

###

Please go through the items and note down their log10(Ki).
# target_or_test_system: Kappa-type opioid receptor (Homo sapiens, UniProt P41145)
# Sequence (P41145 whole entry): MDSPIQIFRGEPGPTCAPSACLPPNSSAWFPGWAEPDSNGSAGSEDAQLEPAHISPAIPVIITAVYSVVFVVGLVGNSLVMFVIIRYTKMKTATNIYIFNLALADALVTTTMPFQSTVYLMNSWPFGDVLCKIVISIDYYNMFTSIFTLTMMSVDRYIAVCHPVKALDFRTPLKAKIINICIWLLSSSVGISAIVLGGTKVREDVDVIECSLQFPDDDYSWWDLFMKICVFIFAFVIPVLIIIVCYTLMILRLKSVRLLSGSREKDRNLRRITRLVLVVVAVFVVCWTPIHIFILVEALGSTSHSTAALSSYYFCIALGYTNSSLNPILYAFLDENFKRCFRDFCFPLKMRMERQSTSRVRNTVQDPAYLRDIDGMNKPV
# measurement_protocol: Displacement of [3H]diprenorphine from recombinant kappa opioid receptor expressed in CHO cells
Parameter value (number): base-10 log of Ki in µM.

Lookup: Any idea what its log10(Ki) is? The molecule is CN1CC[C@]23c4c5cccc4O[C@H]2[C@@H](O)CC[C@H]3[C@H]1C5
Found: 0.69

Lookup: Any idea what log10(Ki) was measured for COc1ccc2c3c1O[C@H]1CC=C[C@H]4[C@@H](C2)N(C)CC[C@]314 ?
Found: 0.49

Lookup: What does the data say about its log10(Ki)? Entry: CN1CC[C@]23c4c5cccc4O[C@H]2CCC[C@H]3[C@H]1C5
Found: -0.23

Lookup: Report log10(Ki) for CN1CC[C@]23c4c5ccc(O)c4O[C@H]2CC=C[C@H]3[C@H]1C5 please.
Found: -1.34

Lookup: Look up log10(Ki) for this molecule: COc1ccc2c3c1O[C@H]1[C@@H](OC)C=C[C@H]4[C@@H](C2)N(C)CC[C@@]341
Found: 0.73

Lookup: What value of measured log10(Ki) is listed for CO[C@H]1CC[C@H]2[C@H]3Cc4cccc5c4[C@@]2(CCN3C)[C@H]1O5 ?
Found: 1.06

Lookup: If you can, please state the reported log10(Ki) value of CO[C@H]1C=C[C@H]2[C@H]3Cc4ccc(O)c5c4[C@@]2(CCN3C)[C@H]1O5 [HETEROCODEINE] .
Found: -1.64

###

# measurement_protocol: Selectivity for recombinant mu opioid receptor over recombinant kappa opioid receptor
readout: Ratio Ki
Give the value as a plain number.

Lookup: Could you tell me which Ratio Ki is on file for COc1ccc2c3c1O[C@H]1CC=C[C@H]4[C@@H](C2)N(C)CC[C@]314 ?
Found: 10

Lookup: State the recorded Ratio Ki for this entry: CN1CC[C@]23c4c5ccc(O)c4O[C@H]2CC=C[C@H]3[C@H]1C5
Found: 16

Lookup: Requested read-out: Ratio Ki. Entry: CN1CC[C@]23c4c5cccc4O[C@H]2[C@@H](O)CC[C@H]3[C@H]1C5
Found: 40

Lookup: Which Ratio Ki reading was recorded for the compound COc1ccc2c3c1O[C@H]1[C@@H](OC)C=C[C@H]4[C@@H](C2)N(C)CC[C@@]341 ?
Found: 3

Lookup: Item CO[C@H]1CC[C@H]2[C@H]3Cc4cccc5c4[C@@]2(CCN3C)[C@H]1O5 has what recorded Ratio Ki?
Found: 22

Lookup: Fill in: Ratio Ki of CN1CC[C@]23c4c5cccc4O[C@H]2CCC[C@H]3[C@H]1C5 is ___
Found: 26
